molecules and their reported IC50
METHOD: Antioxidant activity assessed as DPPH free radical scavenging activity after 30 mins
Type: functional
Give the quantity in µM, number only.

Field: example entries. Status: answers known.
ITEM_SMILES: O=C(Nc1nnc(-c2ccc(O)c(O)c2)s1)c1ccc(/C=C/C(=O)c2cccs2)cc1
IC50 [µM]: 11.1
--
ITEM_SMILES: O=C(/C=C/c1ccc(C(=O)Nc2nnc(-c3ccc(O)c(O)c3)s2)cc1)c1ccc([N+](=O)[O-])cc1
IC50 [µM]: 14

query: Which IC50 is listed for "O=C(Nc1nnc(-c2ccc(O)c(O)c2)s1)c1ccc(/C=C/C(=O)c2cccc3cc4ccccc4cc23)cc1" ?
result: 13.5

query: Which IC50 is listed for "COc1cccc(C(=O)/C=C/c2ccc(C(=O)Nc3nnc(-c4ccc(O)c(O)c4)s3)cc2)c1" ?
result: 10.3

query: Which IC50 is listed for "Cc1ccc(C(=O)/C=C/c2ccc(C(=O)Nc3nnc(-c4ccc(O)c(O)c4)s3)cc2)cc1" ?
result: 11.8

---

compounds and their reported Activity
Test system: Calf thymus DNA
METHOD: Displacement of Hoechst 33258 from calf thymus DNA assessed as fluorescence intensity of compound-DNA complex at 22 uM by fluorescence spectrophotometric analysis relative to control
Type: nucleic-acid assay
CONDITION_NOTES: Bos taurus
Give the quantity in %, number only.

Field: example entries. Status: answers known.
ITEM_SMILES: COc1cccc(C(=O)/C=C/c2ccc(C(=O)Nc3nnc(-c4ccc(O)c(O)c4)s3)cc2)c1
TARGET_ENTITY: Calf thymus DNA
Activity, %: 55
//
ITEM_SMILES: Cc1cccc(C(=O)/C=C/c2ccc(C(=O)Nc3nnc(-c4ccc(O)c(O)c4)s3)cc2)c1
TARGET_ENTITY: Calf thymus DNA
Activity, %: 60
//
ITEM_SMILES: O=C(/C=C/c1ccc(C(=O)Nc2nnc(-c3ccc(O)c(O)c3)s2)cc1)c1ccccc1
TARGET_ENTITY: Calf thymus DNA
Activity, %: 58

query: Which Activity is listed for "O=C(Nc1nnc(-c2ccc(O)c(O)c2)s1)c1ccc(/C=C/C(=O)c2cccs2)cc1" ?
result: 51

---

Tested on: HL-60
METHOD: Cytotoxicity against human HL60 cells assessed as decrease in cell survival after 72 hrs by MTT assay
Assay type: functional, cell-based
CONDITION_NOTES: HL-60, 72 h
pIC50: −log10 of the molar value.
Tag: label 1 if measured pIC50 is not below 5, label 0 if it is.

Completed entries (count: 2):
ITEM_SMILES: O=C(Nc1nnc(-c2ccc(O)c(O)c2)s1)c1ccc(/C=C/C(=O)c2cccs2)cc1
CLASS_LABEL: label 0

ITEM_SMILES: COc1ccc(C(=O)/C=C/c2ccc(C(=O)Nc3nnc(-c4ccc(O)c(O)c4)s3)cc2)cc1
CLASS_LABEL: label 0

query: Decide: pIC50 of "O=C(Nc1nnc(-c2ccc(O)c(O)c2)s1)c1ccc(/C=C/C(=O)c2cccc3cc4ccccc4cc23)cc1" >= 5?
result: label 1

---

Test system: HL-60
METHOD: Cytotoxicity against human HL60 cells assessed as decrease in cell survival after 72 hrs by MTT assay
Assay type: functional, cell-based
CONDITION_NOTES: HL-60, 72 h
QUANTITY_KIND: pIC50
Reminder that pIC50 is minus the log10 of a molar concentration.

query: Which pIC50 is listed for "Cc1ccccc1C(=O)C=Cc1ccc(C(=O)Nc2nnc(-c3ccc(O)c(O)c3)s2)cc1" ?
result: 5.12
